Tested on: HeLa Kyoto;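 further: HeLa Kyoto cells synchronized by double thymidine or nocodazole block, proteins quantified by TMT10plex mass spectrometry, three independent biological replicates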
Assay: melting temperature (median over replicates), in situ; higher = more thermally stable
Conditions: cell cycle stage: mitosis
QUANTITY: melting temperature
Write the quantity with the unit trailing the number.

For orientation, consider the following solved cases.
MSESSSKSSQPLASKQEKDGTEKRGRGRPRKQPPVSPGTALVGSQKEPSEVPTPKRPRGRPKGSKNKGAAKTRKTTTTPGRKPRGRPKKLEKEEEEGISQESSEEEQ [HMGA1]    57.6 °C
MAKKTYDLLFKLLLIGDSGVGKTCVLFRFSDDAFNTTFISTIGIDFKIKTVELQGKKIKLQIWDTAGQERFHTITTSYYRGAMGIMLVYDITNGKSFENISKWLRNIDEHANEDVERMLLGNKCDMDDKRVVPKGKGEQIAREHGIRFFETSAKANINIEKAFLTLAEDILRKTPVKEPNSENVDISSGGGVTGWKSKCC [RAB10]    56.5 °C
MAPKGSSKQQSEEDLLLQDFSRNLSAKSSALFFGNAFIVSAIPIWLYWRIWHMDLIQSAVLYSVMTLVSTYLVAFAYKNVKFVLKHKVAQKREDAVSKEVTRKLSEADNRKMSRKEKDERILWKKNEVADYEATTFSIFYNNTLFLVVVIVASFFILKNFNPTVNYILSISASSGLIALLSTGSK [SSR3]    57.2 °C

Which melting temperature value is on record for MPMYQVKPYHGGGAPLRVELPTCMYRLPNVHGRSYGPAPGAGHVQEESNLSLQALESRQDDILKRLYELKAAVDGLSKMIQTPDADLDVTNIIQADEPTTLTTNALDLNSVLGKDYGALKDIVINANPASPPLSLLVLHRLLCEHFRVLSTVHTHSSVKSVPENLLKCFGEQNKKQPRQDYQLGFTLIWKNVPKTQMKFSIQTMCPIEGEGNIARFLFSLFGQKHNAVNATLIDSWVDIAIFQLKEGSSKEKAAVFRSMNSALGKSPWLAGNELTVADVVLWSVLQQIGGCSVTVPANVQRWMRSCENLAPFNTALKLLK [AIMP2] ?
49.6 °C
